These entries and their values trace back to paper PMC9516332.

Target: panel of 255 wild-type kinases (Homo sapiens, UniProt P07332)
Sequence (P07332 whole entry): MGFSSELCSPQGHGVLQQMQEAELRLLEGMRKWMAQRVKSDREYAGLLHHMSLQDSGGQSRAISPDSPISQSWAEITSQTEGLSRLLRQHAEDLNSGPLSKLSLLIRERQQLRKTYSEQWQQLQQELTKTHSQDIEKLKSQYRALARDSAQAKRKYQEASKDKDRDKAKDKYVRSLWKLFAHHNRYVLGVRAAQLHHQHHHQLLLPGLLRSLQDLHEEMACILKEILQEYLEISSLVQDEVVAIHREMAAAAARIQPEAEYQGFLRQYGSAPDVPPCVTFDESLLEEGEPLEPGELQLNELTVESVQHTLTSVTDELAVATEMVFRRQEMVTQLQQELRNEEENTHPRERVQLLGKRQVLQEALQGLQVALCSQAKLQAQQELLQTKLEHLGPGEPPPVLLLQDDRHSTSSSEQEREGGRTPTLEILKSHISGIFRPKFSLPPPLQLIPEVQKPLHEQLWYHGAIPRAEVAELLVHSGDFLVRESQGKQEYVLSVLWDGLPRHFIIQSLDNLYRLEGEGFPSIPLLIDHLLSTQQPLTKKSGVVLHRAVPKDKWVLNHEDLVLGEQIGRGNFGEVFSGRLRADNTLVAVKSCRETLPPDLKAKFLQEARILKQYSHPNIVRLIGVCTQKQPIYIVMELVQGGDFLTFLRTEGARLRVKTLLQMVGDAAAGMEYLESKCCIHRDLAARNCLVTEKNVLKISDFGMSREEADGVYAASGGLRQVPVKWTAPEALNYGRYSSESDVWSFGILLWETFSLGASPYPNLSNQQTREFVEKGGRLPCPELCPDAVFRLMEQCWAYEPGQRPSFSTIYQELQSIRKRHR
Assay: Kinase panel profiling at 1 µmol/L (MSA or IMAP), percentage inhibition
Type: biochemical
Details: kinase FES; 1 µmol/L single concentration; read-out: %-inhibition at 1 µmol/L, FES
propertyName: inhibition at 1 µM (%)
Reply with just the number (in %).

Check out these entries, answers already filled in.
molecule: C[C@H](Nc1ncnc2nc[nH]c12)c1cc2cccc(Cl)c2c(=O)n1-c1ccccc1
unitSymbol: %
inhibition at 1 µM: -0.806

molecule: FC(F)(F)c1ccc(CNc2ccc(Cc3c[nH]c4ncc(Cl)cc34)cn2)cn1
unitSymbol: %
inhibition at 1 µM: 27

molecule: CCN1C(=O)N(c2c(F)c(OC)cc(OC)c2F)Cc2cnc3[nH]c(CN4CCOCC4)cc3c21
unitSymbol: %
inhibition at 1 µM: 1.55

Measured inhibition at 1 µM of Cn1cnc2c(F)c(Nc3ccc(Br)cc3F)c(C(=O)NOCCO)cc21 : 6

// field: inhibition at 1 µM; key: C=CC(=O)N1CCC([C@@H]2CCNc3c(C(N)=O)c(-c4ccc(Oc5ccccc5)cc4)nn32)CC1 ; value = 1.42

Lab note: Cn1cc(-c2cc3c(N4CCN(c5ncc([C@@](C)(N)c6ccc(F)cc6)cn5)CC4)ncnn3c2)cn1 gave inhibition at 1 µM of 1.65

Per the records, this compound ( COC(=O)N[C@@H](C)CNc1nccc(-c2cn(C(C)C)nc2-c2cc(Cl)cc(NS(C)(=O)=O)c2F)n1 ) has inhibition at 1 µM equal to 7

Data point: Cn1cnc2c(F)c(Nc3ccc(Br)cc3Cl)c(C(=O)NOCCO)cc21 ; inhibition at 1 µM = -3.3

* * *

Molecular target: panel of 255 wild-type kinases (Homo sapiens, UniProt Q13557)
Sequence (Q13557 whole entry): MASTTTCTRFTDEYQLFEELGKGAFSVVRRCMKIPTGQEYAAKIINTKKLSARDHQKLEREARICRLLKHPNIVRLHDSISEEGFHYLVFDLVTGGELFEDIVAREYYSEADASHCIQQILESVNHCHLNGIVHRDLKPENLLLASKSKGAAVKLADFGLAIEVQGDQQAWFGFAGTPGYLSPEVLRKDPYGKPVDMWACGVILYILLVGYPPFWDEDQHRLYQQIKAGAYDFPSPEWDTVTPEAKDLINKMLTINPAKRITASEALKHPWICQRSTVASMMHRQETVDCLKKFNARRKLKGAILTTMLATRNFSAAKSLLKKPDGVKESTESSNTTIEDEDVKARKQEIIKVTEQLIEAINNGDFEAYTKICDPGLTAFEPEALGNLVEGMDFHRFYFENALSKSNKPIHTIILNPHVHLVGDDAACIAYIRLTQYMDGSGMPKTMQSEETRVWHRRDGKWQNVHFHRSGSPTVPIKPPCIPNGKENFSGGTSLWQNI
Experiment: Kinase panel profiling at 1 µmol/L (MSA or IMAP), percentage inhibition
Format: biochemical
Details: CaMK2δ kinase assay; 1 µmol/L single concentration; read-out: %-inhibition CaMK2δ
// values below are reported inhibition at 1 µM
# number only, unit % dropped from output

molecule: CCn1c(=O)c(-c2cc(NC(=O)Nc3ccccc3)c(F)cc2Br)cc2cnc(NC)cc21
unitSymbol: %
inhibition at 1 µM: 0.353
//
molecule: COC(=O)N[C@@H](C)CNc1nccc(-c2cn(C(C)C)nc2-c2cc(Cl)cc(NS(C)(=O)=O)c2F)n1
unitSymbol: %
inhibition at 1 µM: -2.79
//
molecule: CCc1nc(C(N)=O)c(Nc2ccc(N3CCC(N4CCN(C)CC4)CC3)c(OC)c2)nc1NC1CCOCC1
unitSymbol: %
inhibition at 1 µM: 84
//
molecule: COc1cc2ncnc(Nc3ccc(F)c(Cl)c3)c2cc1NC(=O)/C=C/CN1CCCCC1
unitSymbol: %
inhibition at 1 µM: 9
//
molecule: COc1ccc(CN2C3CC2CN(c2ccc(-c4cc(OCC(C)(C)O)cn5ncc(C#N)c45)cn2)C3)cn1
unitSymbol: %
inhibition at 1 µM: 1.36

inhibition at 1 µM recorded for this molecule, CCN1CCN(c2ccc(Nc3cc(N(C)C(=O)Nc4c(Cl)c(OC)cc(OC)c4Cl)ncn3)cc2)CC1 , is -1.48

Noted for Cn1cnc2c(F)c(Nc3ccc(Br)cc3Cl)c(C(=O)NOCCO)cc21 : its inhibition at 1 µM reads -3

inhibition at 1 µM in this record for CCN1C(=O)N(c2c(F)c(OC)cc(OC)c2F)Cc2cnc3[nH]c(CN4CCOCC4)cc3c21 : 11
